FYI, the data here is from paper PMC12416549.

measured_target: T1, TNFR1 (Homo sapiens, UniProt P19438)
T1 chain: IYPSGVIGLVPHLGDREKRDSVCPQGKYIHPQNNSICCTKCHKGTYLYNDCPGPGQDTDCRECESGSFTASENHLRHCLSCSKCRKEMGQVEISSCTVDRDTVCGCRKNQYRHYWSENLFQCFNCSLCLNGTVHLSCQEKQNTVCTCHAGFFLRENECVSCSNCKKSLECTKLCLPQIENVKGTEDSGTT
protocol_description: yeast display SC50
Could you please report measured apparent Kd (screen) for the items listed next?
Reply with just the number (in nM).

Lookup: Recall and state the measured apparent Kd (screen) for L94T (designed binder) SMEEEVEKAAKEYEKKKKEAIEKHLEKLKAKDKEAAERFLKELEEAAKEYAKDEAKTMSEEEAKRRAKKYKEKVLLSELSEEEQKEIKEAEEKTVRTILKYVEEAAK .
Found: 0.446

Lookup: Give recorded apparent Kd (screen). L75E (designed binder) SMEEEVEKAAKEYEKKKKEAIEKHLEKLKAKDKEAAERFLKELEEAAKEYAKDEAKTMSEEEAKRRAKKYKEKVELSELSEEEQKEIKEAEEKLVRTILKYVEEAAK
Found: 2.73

Lookup: Let me know recorded apparent Kd (screen) for K107M (designed binder) SMEEEVEKAAKEYEKKKKEAIEKHLEKLKAKDKEAAERFLKELEEAAKEYAKDEAKTMSEEEAKRRAKKYKEKVLLSELSEEEQKEIKEAEEKLVRTILKYVEEAAM , thanks.
Found: 1.4

Lookup: Note down apparent Kd (screen) recorded for K88H (designed binder) SMEEEVEKAAKEYEKKKKEAIEKHLEKLKAKDKEAAERFLKELEEAAKEYAKDEAKTMSEEEAKRRAKKYKEKVLLSELSEEEQKEIHEAEEKLVRTILKYVEEAAK
Found: 0.49

Lookup: Give recorded apparent Kd (screen). R38K (designed binder) SMEEEVEKAAKEYEKKKKEAIEKHLEKLKAKDKEAAEKFLKELEEAAKEYAKDEAKTMSEEEAKRRAKKYKEKVLLSELSEEEQKEIKEAEEKLVRTILKYVEEAAK
Found: 10.4

Lookup: Dear colleague, please send me the reported apparent Kd (screen) for E22D (designed binder) SMEEEVEKAAKEYEKKKKEAIDKHLEKLKAKDKEAAERFLKELEEAAKEYAKDEAKTMSEEEAKRRAKKYKEKVLLSELSEEEQKEIKEAEEKLVRTILKYVEEAAK when you can.
Found: 0.49
